system: UACC-62; assay: cells; conditions: Homo sapiens, UACC-62, 48 h, read-out: LC50
property: CC50 (µM)
Write the value in µM as a bare number.

Some molecules with recorded CC50:
CN(C)c1nc(NCCNS(=O)(=O)c2ccc(C(=O)/C=C/c3ccc(C(F)(F)F)cc3)cc2)nc(N2CCOCC2)n1 [23g]
48.5
CN(C)c1nc(NCCNS(=O)(=O)c2ccc(C(=O)/C=C/c3ccc(F)cc3)cc2)nc(N2CCOCC2)n1 [23f]
49.1
CN(C)c1nc(NCCNS(=O)(=O)c2ccc(C(=O)/C=C/c3ccc(Cl)cc3)cc2)nc(N2CCOCC2)n1 [23e]
49.1
COc1ccc(/C=C/C(=O)c2ccc(S(=O)(=O)NCCNc3nc(Nc4ccc(F)cc4)nc(N(C)C)n3)cc2)cc1 [24c]
51.6
Cc1ccc(C2CC(c3ccc(Nc4nc(NCCO)nc(Nc5ccc(Cl)cc5)n4)cc3)=Nc3c(N)nc(N)nc3N2)cc1 (stereo not shown) [33b]
6.33
COc1cc(/C=C/C(=O)c2cc(OC)c(OC)c(OC)c2)ccc1Oc1nc(NCCO)nc(N2CCOCC2)n1 [20d]
6.03
CN(C)c1nc(NCCNS(=O)(=O)c2ccc(C(=O)/C=C/c3ccc(F)cc3)cc2)nc(Nc2ccc(F)cc2)n1 [24f]
14.6
COc1cc(/C=C/C(=O)c2ccc(S(=O)(=O)NCCNc3nc(Nc4ccc(F)cc4)nc(N(C)C)n3)cc2)cc(OC)c1OC [24d]
48.8

Turning now to a further record.
For the molecule shown here, CN(C)c1nc(NCCNS(=O)(=O)c2ccc(C(=O)/C=C/c3ccc(Cl)cc3)cc2)nc(Nc2ccc(F)cc2)n1 [24e] , give the reported CC50.
18.7

###

This section presents compounds with their documented GI50 values.
test system: SK-OV-3

Below: 2 compounds and their reported GI50.
CN(C)c1nc(NCCNS(=O)(=O)c2ccc(C3=Nc4c(N)nc(N)nc4NC(c4ccc(C(F)(F)F)cc4)C3)cc2)nc(Nc2ccc(F)cc2)n1 (stereo not drawn) [31g]
> 86 µM
CN(C)c1nc(NCCNS(=O)(=O)c2ccc(C3=Nc4c(N)nc(N)nc4NC(c4ccccc4)C3)cc2)nc(Nc2ccc(F)cc2)n1 (stereo not drawn) [31a]
> 100 µM

Please examine the following record next.
Which measured GI50 value corresponds to CN(C)c1nc(NCCNS(=O)(=O)c2ccc(C3=Nc4c(N)nc(N)nc4NC(c4ccc(F)cc4)C3)cc2)nc(Nc2ccc(F)cc2)n1 (stereo not drawn) [31f] ?
> 100 µM

###

test system: A498; assay: cells; conditions: Homo sapiens, A498, 48 h, read-out: LC50
property: CC50

Please review the entries below; each comes with its answer.
COc1cc(/C=C/C(=O)c2ccc(C)cc2)ccc1Oc1nc(NCCO)nc(N2CCOCC2)n1 [20b]
> 100 µM
CN(C)c1nc(NCCNS(=O)(=O)c2ccc(C3=Nc4c(N)nc(N)nc4NC(c4ccccc4)C3)cc2)nc(Nc2ccc(F)cc2)n1 (stereo not drawn) [31a]
> 100 µM

Param readout= CC50; system= A498; entry= CN(C)c1nc(NCCNS(=O)(=O)c2ccc(C3=Nc4c(N)nc(N)nc4NC(c4ccc(C(F)(F)F)cc4)C3)cc2)nc(N2CCOCC2)n1 (stereo not drawn) [30g] ; returns value.
> 100 µM

###

As shown below, each of these compounds has a reported CC50 value.
system: UACC-257; experiment: cells; settings: Homo sapiens, UACC-257, 48 h, read-out: LC50

The examples below pair each entry with its known result.
COc1cc(/C=C/C(=O)c2ccc(C)cc2)ccc1Oc1nc(NCCO)nc(N2CCOCC2)n1 [20b]
> 100 µM
CN(C)c1nc(NCCNS(=O)(=O)c2ccc(C3=Nc4c(N)nc(N)nc4NC(c4ccc(F)cc4)C3)cc2)nc(Nc2ccc(F)cc2)n1 (stereo not drawn) [31f]
> 100 µM

Let us examine a further case.
For the compound shown here, COc1ccc(/C=C/C(=O)c2ccc(S(=O)(=O)NCCNc3nc(Nc4ccc(F)cc4)nc(N(C)C)n3)cc2)cc1 [24c] , give the reported CC50.
> 100 µM

###

test system: NCI-H226; assay: cells; conditions: Homo sapiens, NCI-H226, 48 h, read-out: LC50
Overview of reported CC50 across a group of compounds:
A number alone suffices; assume µM.

COc1cc(/C=C/C(=O)c2ccccc2)ccc1Oc1nc(Nc2ccc(F)cc2)nc(N(C)C)n1 [21a]
64.9
Cc1ccc(C2CC(c3ccc(Nc4nc(NCCO)nc(Nc5ccc(Cl)cc5)n4)cc3)=Nc3c(N)nc(N)nc3N2)cc1 (stereo not drawn) [33b]
88.2
Cc1ccc(/C=C/C(=O)c2ccc(S(=O)(=O)NCCNc3nc(Nc4ccc(F)cc4)nc(N(C)C)n3)cc2)cc1 [24b]
63.9

Now look at this entry.
Can you share its CC50? I mean this compound: Nc1nc(N)c2c(n1)NC(c1ccc(C(F)(F)F)cc1)CC(c1ccc(Nc3nc(NCCO)nc(Nc4ccc(Cl)cc4)n3)cc1)=N2 (stereo not drawn) [33g]
8.31

###

Listed compounds paired with reported log10 of CC50
tested on: HOP-92; assay: cells; conditions: Homo sapiens, HOP-92, 48 h, read-out: LC50
Reminder: these figures are log10 of reported CC50, in µM before transformation.

CN(C)c1nc(NCCNS(=O)(=O)c2ccc(C(=O)/C=C/c3ccc(Cl)cc3)cc2)nc(N2CCOCC2)n1 [23e]
1.83

Lookup: log10 of CC50 / HOP-92 / COc1cc(/C=C/C(=O)c2cc(OC)c(OC)c(OC)c2)ccc1Oc1nc(NCCO)nc(N2CCOCC2)n1 [20d]
1.55

# value lookup — system HOP-92, readout log10 of CC50, item Cc1ccc(/C=C/C(=O)c2ccc(S(=O)(=O)NCCNc3nc(Nc4ccc(F)cc4)nc(N(C)C)n3)cc2)cc1 [24b]
1.73

Value wanted: log10 of CC50 (HOP-92) of entry Nc1nc(N)c2c(n1)NC(c1ccc(Cl)cc1)CC(c1ccc(Nc3nc(NCCO)nc(Nc4ccc(Cl)cc4)n3)cc1)=N2 (stereo not drawn) [33e]
0.88

Under HOP-92: log10 of CC50 value of CN(C)c1nc(NCCNS(=O)(=O)c2ccc(C(=O)/C=C/c3ccc(C(F)(F)F)cc3)cc2)nc(Nc2ccc(F)cc2)n1 [24g] ?
1.32

Item CN(C)c1nc(NCCNS(=O)(=O)c2ccc(C(=O)/C=C/c3ccc(F)cc3)cc2)nc(Nc2ccc(F)cc2)n1 [24f] with HOP-92 - log10 of CC50?
0.81

###

tested on: SF-539; experiment: cells; settings: Homo sapiens, SF-539, 48 h
// GI50 lookup, one value per entry
Entry rule: numbers only, all in nM.

COc1cc(/C=C/C(=O)c2ccc(S(=O)(=O)NCCNc3nc(Nc4ccc(F)cc4)nc(N(C)C)n3)cc2)cc(OC)c1OC [24d]
1710
CN(C)c1nc(NCCNS(=O)(=O)c2ccc(C3=Nc4c(N)nc(N)nc4NC(c4ccc(F)cc4)C3)cc2)nc(Nc2ccc(F)cc2)n1 (centres unmarked) [31f]
3890
COc1cc(/C=C/C(=O)c2cc(OC)c(OC)c(OC)c2)ccc1Oc1nc(Nc2ccc(F)cc2)nc(N(C)C)n1 [21d]
1640
CN(C)c1nc(NCCNS(=O)(=O)c2ccc(C3=Nc4c(N)nc(N)nc4NC(c4ccc(C(F)(F)F)cc4)C3)cc2)nc(N2CCOCC2)n1 (centres unmarked) [30g]
22500

Lab note: need GI50 for Nc1nc(N)c2c(n1)NC(c1ccc(F)cc1)CC(c1ccc(Nc3nc(NCCO)nc(Nc4ccc(Cl)cc4)n3)cc1)=N2 (centres unmarked) [33f] on SF-539, anyone have it?
1560

###

Reported GI50 values for a set of compounds
test system: MDA-MB-468; assay: cells; settings: Homo sapiens, MDA-MB-468, 48 h
Output spec: scalar in µM, unitless text.

Consider the reported GI50 for these compounds:
COc1cc(/C=C/C(=O)c2cc(OC)c(OC)c(OC)c2)ccc1Oc1nc(Nc2ccc(F)cc2)nc(N(C)C)n1 [21d]
1.35
CN(C)c1nc(NCCNS(=O)(=O)c2ccc(C(=O)/C=C/c3ccccc3)cc2)nc(Nc2ccc(F)cc2)n1 [24a]
2.84
CN(C)c1nc(NCCNS(=O)(=O)c2ccc(C3=Nc4c(N)nc(N)nc4NC(c4ccc(F)cc4)C3)cc2)nc(Nc2ccc(F)cc2)n1 (stereo not shown) [31f]
2.15
CN(C)c1nc(NCCNS(=O)(=O)c2ccc(C(=O)/C=C/c3ccccc3)cc2)nc(N2CCOCC2)n1 [23a]
4.17
CN(C)c1nc(NCCNS(=O)(=O)c2ccc(C3=Nc4c(N)nc(N)nc4NC(c4ccccc4)C3)cc2)nc(Nc2ccc(F)cc2)n1 (stereo not shown) [31a]
3.37

Give its GI50 value. Item: CN(C)c1nc(NCCNS(=O)(=O)c2ccc(C(=O)/C=C/c3ccc(Cl)cc3)cc2)nc(Nc2ccc(F)cc2)n1 [24e]
3.71

Give its GI50 value. Item: COc1cc(/C=C/C(=O)c2ccc(C)cc2)ccc1Oc1nc(Nc2ccc(F)cc2)nc(N(C)C)n1 [21b]
4.64

Suppose we examine the compound CN(C)c1nc(NCCNS(=O)(=O)c2ccc(C3=Nc4c(N)nc(N)nc4NC(c4ccc(C(F)(F)F)cc4)C3)cc2)nc(Nc2ccc(F)cc2)n1 (stereo not shown) [31g] ; what GI50 value has been reported?
2.67

Field request: GI50 | item: COc1cc(/C=C/C(=O)c2ccc(S(=O)(=O)NCCNc3nc(Nc4ccc(F)cc4)nc(N(C)C)n3)cc2)cc(OC)c1OC [24d]
2

// lookup GI50 for CN(C)c1nc(NCCNS(=O)(=O)c2ccc(C(=O)/C=C/c3ccc(Cl)cc3)cc2)nc(N2CCOCC2)n1 [23e]
11

GI50 lookup needed for Cc1ccc(C2CC(c3ccc(Nc4nc(NCCO)nc(Nc5ccc(Cl)cc5)n4)cc3)=Nc3c(N)nc(N)nc3N2)cc1 (stereo not shown) [33b] , thanks.
1.65

I am curious: what GI50 value has been reported for COc1cc(/C=C/C(=O)c2ccccc2)ccc1Oc1nc(Nc2ccc(F)cc2)nc(N(C)C)n1 [21a] ?
3.21

# query: GI50 of entry Nc1nc(N)c2c(n1)NC(c1ccccc1)CC(c1ccc(Nc3nc(NCCO)nc(Nc4ccc(Cl)cc4)n3)cc1)=N2 (stereo not shown) [33a]
1.51

May I ask what GI50 has been recorded for Nc1nc(N)c2c(n1)NC(c1ccc(F)cc1)CC(c1ccc(Nc3nc(NCCO)nc(Nc4ccc(Cl)cc4)n3)cc1)=N2 (stereo not shown) [33f] ?
1.48

So what does the record say about GI50 for CN(C)c1nc(NCCNS(=O)(=O)c2ccc(C3=Nc4c(N)nc(N)nc4NC(c4ccc(C(F)(F)F)cc4)C3)cc2)nc(N2CCOCC2)n1 (stereo not shown) [30g] ?
13.7

Can you share its GI50? I mean this compound: Nc1nc(N)c2c(n1)NC(c1ccc(C(F)(F)F)cc1)CC(c1ccc(Nc3nc(NCCO)nc(Nc4ccc(Cl)cc4)n3)cc1)=N2 (stereo not shown) [33g]
1.58

Requested read-out: GI50. Entry: CN(C)c1nc(NCCNS(=O)(=O)c2ccc(C(=O)/C=C/c3ccc(C(F)(F)F)cc3)cc2)nc(Nc2ccc(F)cc2)n1 [24g]
4.53

Given the entry Cc1ccc(C2CC(c3ccc(S(=O)(=O)NCCNc4nc(Nc5ccc(F)cc5)nc(N(C)C)n4)cc3)=Nc3c(N)nc(N)nc3N2)cc1 (stereo not shown) [31b] , report its measured GI50.
2.72

I am curious: what GI50 value has been reported for CN(C)c1nc(NCCNS(=O)(=O)c2ccc(C(=O)/C=C/c3ccc(C(F)(F)F)cc3)cc2)nc(N2CCOCC2)n1 [23g] ?
5.11

Item COc1ccc(/C=C/C(=O)c2ccc(S(=O)(=O)NCCNc3nc(Nc4ccc(F)cc4)nc(N(C)C)n3)cc2)cc1 [24c] has what recorded GI50?
2.57

Which GI50 is reported for this compound? Cc1ccc(/C=C/C(=O)c2ccc(S(=O)(=O)NCCNc3nc(Nc4ccc(F)cc4)nc(N(C)C)n3)cc2)cc1 [24b]
4.66

Reported GI50 for Nc1nc(N)c2c(n1)NC(c1ccc(Cl)cc1)CC(c1ccc(Nc3nc(NCCO)nc(Nc4ccc(Cl)cc4)n3)cc1)=N2 (stereo not shown) [33e] : what is it?
1.39
